Origin of measurements: patent US10118947B2

# Target Desc: human plasma Kallikrein (Homo sapiens, UniProt P03952)
# Construct: purchased Stratech, UK
# Sequence (P03952 20-638): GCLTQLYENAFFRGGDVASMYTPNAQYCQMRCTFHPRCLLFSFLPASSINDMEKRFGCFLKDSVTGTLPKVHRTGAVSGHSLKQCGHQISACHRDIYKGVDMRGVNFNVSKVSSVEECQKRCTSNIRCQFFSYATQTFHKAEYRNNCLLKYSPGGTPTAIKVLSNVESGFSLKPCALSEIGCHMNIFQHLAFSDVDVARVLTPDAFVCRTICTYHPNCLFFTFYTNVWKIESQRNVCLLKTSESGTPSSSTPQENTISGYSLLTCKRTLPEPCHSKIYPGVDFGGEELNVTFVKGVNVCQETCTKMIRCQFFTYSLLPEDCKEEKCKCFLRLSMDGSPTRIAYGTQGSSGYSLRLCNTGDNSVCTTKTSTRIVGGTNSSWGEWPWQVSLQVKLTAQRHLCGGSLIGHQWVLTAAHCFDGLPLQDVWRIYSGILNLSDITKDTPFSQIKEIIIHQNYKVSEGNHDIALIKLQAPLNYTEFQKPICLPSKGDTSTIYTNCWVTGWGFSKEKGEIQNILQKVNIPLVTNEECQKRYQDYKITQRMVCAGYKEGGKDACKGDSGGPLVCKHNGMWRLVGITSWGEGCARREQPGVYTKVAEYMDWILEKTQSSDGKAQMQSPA
# Assay Details: Phage binding assay of individual clones, homogeneous plate-based binding to biotinylated human plasma Kallikrein
# Assay Context: Table 19; fixed WPAR motif library, selection output clones
Readout Name: BINDING ASSAY SIGNAL
One number for each entry.

These recorded examples may help you get a feel for the data.
- Biosequence: "CAWPARCTHDDLC"
  Target Desc: "human plasma Kallikrein (Homo sapiens, UniProt P03952)"
  BINDING ASSAY SIGNAL: 84
- Biosequence: "CLWPARCLTIELC"
  Target Desc: "human plasma Kallikrein (Homo sapiens, UniProt P03952)"
  BINDING ASSAY SIGNAL: 59
- Biosequence: "CSWPARCTHTDLC"
  Target Desc: "human plasma Kallikrein (Homo sapiens, UniProt P03952)"
  BINDING ASSAY SIGNAL: 83

Kindly review the next sequence as well.
Param item = CQWPARCTHTDLC ; retrieve measured BINDING ASSAY SIGNAL.
91

----------
Kindly state F (Kivar/KiWT) for each of the entries shown.
# Target Desc: human plasma Kallikrein (Homo sapiens)
# Construct: purchased Stratech, UK
# Assay Details: Functional enzyme inhibition assay with fluorogenic substrate Z-PheArg-AMC, human plasma Kallikrein
# Format: biochemical
# Assay Context: Table 3a; ratio of Ki to wild type
Numbered stars: 1 amine (or outer) side, 2 acyl side, 3 side chain; on linkers, the order of the positions; unused ones are H or OH. Bridge positions count the residues as written; N and C are the ends. Peptide text beside a SMILES is read from it. TBMB = c1c(C[*:1])cc(C[*:3])cc1C[*:2]
Answers are plain numbers.

# example entries with known answers
- Compound: "CC(=O)N[C@H]1CSCc2cc3cc(c2)CSC[C@H](NC(=O)[C@H](CCCNC(=N)N)NC(=O)[C@H](Cc2ccc(O)cc2)NC(=O)[C@@H]2CCCN2C(=O)[C@H](Cc2ccccc2)NC(=O)[C@H](CO)NC1=O)C(=O)N[C@@H](CC(C)C)C(=O)N[C@@H](Cc1c[nH]cn1)C(=O)N[C@@H](CCC(N)=O)C(=O)N[C@@H](C)C(=O)N[C@@H](CC(C)C)C(=O)N[C@H](C(N)=O)CSC3 [Ac-(06-34-18) Phe2 Tyr4 Ala9] (Ac-CSFPYRCLHQALC-NH2; linker 1-7-13 via TBMB)"
  Target Desc: "human plasma Kallikrein (Homo sapiens)"
  Recorded Measurement: 4
- Compound: "CC(=O)N[C@H]1CSCc2cc3cc(c2)CSC[C@H](NC(=O)[C@H](CCCNC(=N)N)NC(=O)[C@H](Cc2ccc(O)cc2)NC(=O)[C@@H]2CCCN2C(=O)[C@H](Cc2ccccc2)NC(=O)[C@H](CO)NC1=O)C(=O)N[C@@H](C)C(=O)N[C@@H](Cc1c[nH]cn1)C(=O)N[C@@H](CCC(N)=O)C(=O)N[C@@H](CC(=O)O)C(=O)N[C@@H](CC(C)C)C(=O)N[C@H](C(N)=O)CSC3 [Ac-(06-34-18) Phe2 Tyr4 Ala6] (Ac-CSFPYRCAHQDLC-NH2; linker 1-7-13 via TBMB)"
  Target Desc: "human plasma Kallikrein (Homo sapiens)"
  Recorded Measurement: 5
- Compound: "CC(=O)N[C@H]1CSCc2cc3cc(c2)CSC[C@H](NC(=O)[C@H](CCCNC(=N)N)NC(=O)[C@H](Cc2ccc(O)cc2)NC(=O)[C@@H]2CCCN2C(=O)[C@H](Cc2ccccc2)NC(=O)[C@H](CO)NC1=O)C(=O)N[C@@H](CC(C)C)C(=O)N[C@@H](Cc1c[nH]cn1)C(=O)N[C@@H](CCC(N)=O)C(=O)N[C@@H](CC(=O)O)C(=O)N[C@@H](C)C(=O)N[C@H](C(N)=O)CSC3 [Ac-(06-34-18) Phe2 Tyr4 Ala10] (Ac-CSFPYRCLHQDAC-NH2; linker 1-7-13 via TBMB)"
  Target Desc: "human plasma Kallikrein (Homo sapiens)"
  Recorded Measurement: 32
- Compound: "CC(=O)N[C@H]1CSCc2cc3cc(c2)CSC[C@H](NC(=O)[C@H](CCCNC(=N)N)NC(=O)[C@H](Cc2ccc(O)cc2)NC(=O)[C@@H]2CCCN2C(=O)[C@H](Cc2ccccc2)NC(=O)[C@H](CO)NC1=O)C(=O)N[C@@H](CC(C)C)C(=O)N[C@@H](C)C(=O)N[C@@H](CCC(N)=O)C(=O)N[C@@H](CC(=O)O)C(=O)N[C@@H](CC(C)C)C(=O)N[C@H](C(N)=O)CSC3 [Ac-(06-34-18) Phe2 Tyr4 Ala7] (Ac-CSFPYRCLAQDLC-NH2; linker 1-7-13 via TBMB)"
  Target Desc: "human plasma Kallikrein (Homo sapiens)"
  Recorded Measurement: 56
- Compound: "CC(=O)N[C@H]1CSCc2cc3cc(c2)CSC[C@H](NC(=O)[C@H](CCCNC(=N)N)NC(=O)[C@H](Cc2ccc(O)cc2)NC(=O)[C@@H]2CCCN2C(=O)[C@H](Cc2ccccc2)NC(=O)[C@H](CO)NC1=O)C(=O)N[C@@H](CC(C)C)C(=O)N[C@@H](Cc1c[nH]cn1)C(=O)N[C@@H](CCC(N)=O)C(=O)N[C@@H](CC(=O)O)C(=O)N[C@@H](CC(C)C)C(=O)N[C@H](C(N)=O)CSC3 [Ac-(06-34-18) Phe2 Tyr4] (Ac-CSFPYRCLHQDLC-NH2; linker 1-7-13 via TBMB)"
  Target Desc: "human plasma Kallikrein (Homo sapiens)"
  Recorded Measurement: 1

Give the reported F (Kivar/KiWT) for CC(=O)N[C@H]1CSCc2cc3cc(c2)CSC[C@H](NC(=O)[C@H](CCCNC(=N)N)NC(=O)[C@H](Cc2ccc(O)cc2)NC(=O)[C@@H]2CCCN2C(=O)[C@H](Cc2ccccc2)NC(=O)[C@H](CO)NC1=O)C(=O)N[C@@H](CC(C)C)C(=O)N[C@@H](Cc1c[nH]cn1)C(=O)N[C@@H](C)C(=O)N[C@@H](CC(=O)O)C(=O)N[C@@H](CC(C)C)C(=O)N[C@H](C(N)=O)CSC3 [Ac-(06-34-18) Phe2 Tyr4 Ala8] (Ac-CSFPYRCLHADLC-NH2; linker 1-7-13 via TBMB) (system: human plasma Kallikrein (Homo sapiens)).
4

----------
# Target Desc: human plasma Kallikrein (Homo sapiens)
# Construct: purchased Stratech, UK
# Assay Details: Functional enzyme inhibition assay with fluorogenic substrate Z-PheArg-AMC, human plasma Kallikrein
# Type: biochemical
# Assay Context: Table 26b, loop 1 and loop 2 modified derivatives; read-out: Ki (nM) (human kallikrein)
Numbered stars: 1 amine (or outer) side, 2 acyl side, 3 side chain; on linkers, the order of the positions; unused ones are H or OH. Bridge positions count the residues as written; N and C are the ends. Square brackets hold non-standard residues; d marks the D form. Peptide text beside a SMILES is read from it. TBMB = c1c(C[*:1])cc(C[*:3])cc1C[*:2]; hArg = N=C(N)NCCCC[C@H](N)C(=O)O; Phg = N[C@H](C(=O)O)c1ccccc1; Tle = CC(C)(C)[C@H](N)C(=O)O; Aze = O=C(O)[C@@H]1CCN1
Readout Name: Ki (nM)
Numbers only, in nM.

- Compound: "CC(=O)N[C@H]1CSCc2cc3cc(c2)CSC[C@H](NC(=O)[C@H](CCCCNC(=N)N)NC(=O)[C@H](Cc2ccc(O)cc2)NC(=O)[C@@H]2CCN2C(=O)[C@H](Cc2ccccc2)NC(=O)[C@H](CO)NC1=O)C(=O)N[C@@H](C)CN[C@@H](Cc1c[nH]cn1)C(=O)N[C@@H](CCC(N)=O)C(=O)N[C@@H](CC(=O)O)C(=O)N[C@@H](CC(C)C)C(=O)N[C@H](C(N)=O)CSC3"
  Recorded Measurement: 0.44
- Compound: "CC(=O)N[C@H]1CSCc2cc3cc(c2)CSC[C@H](NC(=O)[C@H](CCCCNC(=N)N)NC(=O)[C@H](Cc2ccc(O)cc2)NC(=O)[C@@H]2CCN2C(=O)[C@H](Cc2ccccc2)NC(=O)[C@H](CO)NC1=O)C(=O)N[C@@H](c1ccccc1)C(=O)N[C@@H](Cc1c[nH]cn1)C(=O)N[C@@H](CCC(N)=O)C(=O)N[C@@H](CC(=O)O)C(=O)N[C@@H](CC(C)C)C(=O)N[C@H](C(N)=O)CSC3 [Ac-(06-34-18) Phe2 Aze3 Tyr4 HArg5 Phg6] (Ac-CSF[Aze]Y[hArg]C[Phg]HQDLC-NH2; linker 1-7-13 via TBMB)"
  Recorded Measurement: 0.32
- Compound: "CC(=O)N[C@H]1CSCc2cc3cc(c2)CSC[C@H](NC(=O)[C@H](CCCNC(=N)N)NC(=O)[C@H](Cc2ccc(O)cc2)NC(=O)[C@@H]2CCN2C(=O)[C@H](Cc2ccccc2)NC(=O)[C@H](CO)NC1=O)C(=O)N[C@@H](C(C)(C)C)C(=O)N[C@@H](Cc1c[nH]cn1)C(=O)N[C@@H](CCC(N)=O)C(=O)N[C@@H](CC(=O)O)C(=O)N[C@@H](CC(C)C)C(=O)N[C@H](C(N)=O)CSC3 [Ac-(06-34-18) Phe2 Aze3 Tyr4 tBuGly6] (Ac-CSF[Aze]YRC[Tle]HQDLC-NH2; linker 1-7-13 via TBMB)"
  Recorded Measurement: 1.91

# get_value(readout='Ki', item= CC(=O)N[C@H]1CSCc2cc3cc(c2)CSC[C@H](NC(=O)[C@H](CCCCNC(=N)N)NC(=O)[C@H](Cc2ccc(O)cc2)NC(=O)[C@@H]2CCN2C(=O)[C@H](Cc2ccccc2)NC(=O)[C@H](CO)NC1=O)C(=O)N[C@@H](CC(C)C)C(=O)N[C@@H](Cc1c[nH]cn1)C(=O)N[C@@H](CCC(N)=O)C(=O)N[C@H](CC(=O)O)C(=O)N[C@@H](CC(C)C)C(=O)N[C@H](C(N)=O)CSC3 (Ac-CSF[Aze]Y[hArg]CLHQ[dD]LC-NH2; linker 1-7-13 via TBMB) )
0.9
